Target: KRas G12V (Homo sapiens, UniProt P01116, G12V)
Construct: Biotinylated KRas G12V (aa 1-169) loaded with GDP nucleotide; biotin (biotinylated)
Sequence (P01116 1-169 G12V): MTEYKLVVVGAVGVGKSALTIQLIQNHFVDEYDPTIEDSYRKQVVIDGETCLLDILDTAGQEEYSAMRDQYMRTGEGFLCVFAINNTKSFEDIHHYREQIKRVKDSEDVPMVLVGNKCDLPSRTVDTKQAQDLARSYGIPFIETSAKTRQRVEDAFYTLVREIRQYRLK
Experiment: SOS1-Catalyzed Nucleotide Exchange Assay, KRas G12V (Method 2)
Assay type: biochemical
Settings: Method 2, A; 5 nM KRas G12V (aa 1-169, GDP-loaded), 50 nM SOS1; read-out: KRas G12V IC50 (nM) (Method 2, A)
measured-parameter: IC50

A selection of reference data follows.
compound="O=C1CCCc2c(F)ccc3cccc(c23)-c2ncc3c(nc(OC[C@@]45CCCN4C[C@H](F)C5)nc3c2F)N2CCOCC(CN1)C2 (stereo partly drawn) [Compound 193a]" system="KRas G12V (Homo sapiens, UniProt P01116, G12V)" result="100 to 1000 nM"
compound="O=C1CCCc2c(F)ccc3cc(O)cc(c23)-c2ccc3c(nc(OC[C@@]45CCCN4C[C@H](F)C5)nc3c2F)N2CCOCC(CCN1)C2 (stereo partly drawn) [Compound 195a]" system="KRas G12V (Homo sapiens, UniProt P01116, G12V)" result="≤ 100 nM"

Q) Suppose we examine the compound Nc1cc(Cl)c2c(c1)-c1ncc3c(nc(OC[C@@]45CCCN4C[C@H](F)C5)nc3c1F)N1CCCC(CCNC(=O)CCCC2)C1 (stereo partly drawn) [Compound 154a] ; what IC50 value has been reported?
A) ≤ 100 nM

Q) For the compound Nc1cc(Cl)c2c(c1)-c1c(Cl)cc3c(nc(OC[C@@]45CCCN4C[C@H](F)C5)nc3c1F)N1CCCC(O)(CCNC(=O)CCCC2)C1 (stereo partly drawn) [Compound 158a] , what IC50 is on record?
A) 1000 to 10000 nM

Q) Would you kindly share the measured IC50 for O=C1CCCc2c(F)ccc3cc(O)cc(c23)-c2ncc3c(nc(OC[C@@]45CCCN4C[C@H](F)C5)nc3c2F)N2CCCC(CN1)C2 (stereo partly drawn) [Compound 135a] ?
A) ≤ 100 nM

Q) Dear colleague, I am looking for the recorded IC50 of the following compound: Nc1cc(Cl)c2c(c1)-c1c(Cl)cc3c(nc(OC[C@@]45CCCN4C[C@H](F)C5)nc3c1F)N1CCCC(CCNC(=O)CCCC2)C1 (stereo partly drawn) [Compound 155a]
A) 1000 to 10000 nM
